test system: Streptococcus pneumoniae; test: Ratio of MBC to MIC against erythromycin-susceptible Streptococcus pneumoniae ATCC 49619; assay type: functional
metric-name: Ratio

[
  {
    "smiles-record": "CC[C@H]1OC(=O)[C@H](C)[C@@H](OC(=O)Cc2ccccn2)[C@H](C)[C@@H](O[C@@H]2O[C@H](C)C[C@H](N(C)C)[C@H]2O)[C@](C)(OC)C[C@@H](C)/C(=N\\OCC#Cc2cccnc2)[C@H](C)[C@H]2OC(=O)O[C@@]21C",
    "metric-name": "Ratio",
    "measured-result": ">=1"
  },
  {
    "smiles-record": "CC[C@H]1OC(=O)[C@H](C)[C@@H](OC(=O)Cc2ccccn2)[C@H](C)[C@@H](O[C@@H]2O[C@H](C)C[C@H](N(C)C)[C@H]2O)[C@](C)(OC)C[C@@H](C)/C(=N\\OCC#Cc2ccc3nccnc3c2)[C@H](C)[C@H]2OC(=O)O[C@@]21C",
    "metric-name": "Ratio",
    "measured-result": ">=1"
  },
  {
    "smiles-record": "CC[C@H]1OC(=O)[C@H](C)C(=O)[C@H](C)[C@@H](O[C@@H]2O[C@H](C)C[C@H](N(C)C)[C@H]2O)[C@](C)(OC)C[C@@H](C)/C(=N\\OC/C=C/c2cnc3ccccc3c2)[C@H](C)[C@H]2OC(=O)O[C@@]21C",
    "metric-name": "Ratio",
    "measured-result": ">=4"
  },
  {
    "smiles-record": "CC[C@H]1OC(=O)[C@H](C)[C@@H](OC(=O)Cc2ccccn2)[C@H](C)[C@@H](O[C@@H]2O[C@H](C)C[C@H](N(C)C)[C@H]2O)[C@](C)(OC)C[C@@H](C)/C(=N\\OCC#Cc2cncc(N)c2)[C@H](C)[C@H]2OC(=O)O[C@@]21C",
    "metric-name": "Ratio",
    "measured-result": ">=1"
  }
]
